Provenance of the data: ChEMBL document CHEMBL4825769

Please respond with reported pIC50 for every item in the list.
Would you please state pIC50, meaning minus log10 of the concentration in mol/L, as a bare number?

Item: CN1CCN(c2ccc(Nc3ncc4c(F)cn(-c5cccc(C6(F)COC6)n5)c4n3)cc2)CC1 Test system: Serine/threonine-protein kinase PLK1 (Homo sapiens, UniProt P53350) Read-out: pIC50 Value: ?
7.62

Recorded pIC50 for CC(C)(O)c1cccc(-n2cc(F)c3cnc(Nc4ccc(N5CCNC6(CC6)C5)cc4)nc32)n1 with Serine/threonine-protein kinase PLK1 (Homo sapiens, UniProt P53350), please?
7.21

# returns recorded pIC50 (system: Serine/threonine-protein kinase PLK1 (Homo sapiens, UniProt P53350)) for CC(C)(O)c1cccc(-n2cc(F)c3cnc(Nc4ccc(NC(=O)C5CCOCC5)cc4)nc32)n1
# Sequence (P53350 whole entry): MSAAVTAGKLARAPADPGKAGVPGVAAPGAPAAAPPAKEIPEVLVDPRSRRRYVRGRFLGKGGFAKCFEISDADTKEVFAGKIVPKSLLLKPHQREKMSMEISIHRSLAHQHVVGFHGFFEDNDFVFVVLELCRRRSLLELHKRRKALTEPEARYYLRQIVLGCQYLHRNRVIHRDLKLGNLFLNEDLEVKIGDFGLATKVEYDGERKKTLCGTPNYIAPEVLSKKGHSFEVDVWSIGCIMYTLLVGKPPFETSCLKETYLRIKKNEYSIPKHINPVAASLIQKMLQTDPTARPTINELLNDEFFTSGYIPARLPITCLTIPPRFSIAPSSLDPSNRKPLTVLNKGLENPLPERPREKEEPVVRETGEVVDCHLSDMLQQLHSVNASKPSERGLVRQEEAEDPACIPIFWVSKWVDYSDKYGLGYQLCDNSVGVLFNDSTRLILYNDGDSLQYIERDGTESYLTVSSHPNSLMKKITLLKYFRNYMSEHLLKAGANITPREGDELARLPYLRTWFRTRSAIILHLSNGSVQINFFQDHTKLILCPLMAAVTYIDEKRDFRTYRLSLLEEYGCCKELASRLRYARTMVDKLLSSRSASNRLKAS
7.52

Item CN1CCC(NC(=O)c2ccc(Nc3ncc4ccn(-c5cccc(C(C)(C)O)n5)c4n3)cc2)CC1 with Serine/threonine-protein kinase PLK1 (Homo sapiens, UniProt P53350) - pIC50?
7.23

API: value(readout=pIC50, system=Serine/threonine-protein kinase PLK1 (Homo sapiens, UniProt P53350)) for record CC(C)(O)c1cccc(-n2cc(F)c3cnc(Nc4ccc(N5C[C@@H]6C[C@H]5CN6)cc4)nc32)n1
7.52

Query pIC50 on Serine/threonine-protein kinase PLK1 (Homo sapiens, UniProt P53350) for CN1CCN(c2ccc(Nc3ncc4c(F)cn(-c5cccc(N=S(C)(C)=O)n5)c4n3)cc2)CC1
6.42

Form: Entry = CC(C)(O)c1cccc(-n2cc(F)c3cnc(Nc4ccc(N5CCNCC5)cc4)nc32)n1 | System = Serine/threonine-protein kinase PLK1 (Homo sapiens, UniProt P53350) | pIC50 = ____
7.22

* * *

quantity-kind: pIC50
Friendly reminder that pIC50 comes from taking -log10 of the concentration in mol/L.

Report pIC50 for CC(C)(O)c1cccc(-n2cc(F)c3cnc(Nc4ccc(N5C[C@H]6C[C@@H]5CN6)cc4)nc32)n1 tested on Wee1-like protein kinase (Homo sapiens).
Sequence (P30291 whole entry): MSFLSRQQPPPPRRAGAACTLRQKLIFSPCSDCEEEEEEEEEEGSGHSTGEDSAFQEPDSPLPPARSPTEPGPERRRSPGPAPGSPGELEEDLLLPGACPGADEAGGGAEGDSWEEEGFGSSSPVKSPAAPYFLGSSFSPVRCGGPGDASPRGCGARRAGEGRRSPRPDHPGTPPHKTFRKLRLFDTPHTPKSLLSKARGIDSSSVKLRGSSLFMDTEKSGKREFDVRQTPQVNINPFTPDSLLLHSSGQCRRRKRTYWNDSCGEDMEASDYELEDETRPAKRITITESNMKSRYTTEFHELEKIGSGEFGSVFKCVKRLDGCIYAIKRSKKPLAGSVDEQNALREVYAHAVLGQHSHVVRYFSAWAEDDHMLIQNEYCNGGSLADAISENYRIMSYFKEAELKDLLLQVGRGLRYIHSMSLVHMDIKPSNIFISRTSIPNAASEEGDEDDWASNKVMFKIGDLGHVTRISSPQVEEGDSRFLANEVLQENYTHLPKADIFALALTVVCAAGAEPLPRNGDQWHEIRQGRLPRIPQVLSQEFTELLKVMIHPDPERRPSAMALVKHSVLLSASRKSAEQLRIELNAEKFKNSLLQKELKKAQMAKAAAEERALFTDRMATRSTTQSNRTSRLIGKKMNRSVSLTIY
7.68

What pIC50 appears in the records for this compound with Wee1-like protein kinase (Homo sapiens)? CC(C)(O)c1cccc(-n2cc(F)c3cnc(Nc4ccc(N5CCNCC5)cc4)nc32)n1
7.28
